Where do these numbers come from? They come from ChEMBL document CHEMBL4699655.

# Assay Protocol: Protein binding in rat plasma
# Format: ADME, cell-free
# Reported Conditions: read-out: PPB (converted)
fraction unbound vs 0.02: at or above is True, below is False.

Example entries and their recorded answers appear below.
- Smi: "O=C(Nc1cnc(-n2nccn2)c(Cl)c1)Nc1cnc2cc(Cl)nn2c1C1CCOCC1"
  Label Value: "True"
- Smi: "CO[C@@H](C)c1c(NC(=O)Nc2ccnc(C(F)(F)F)c2)cnc2cc(Cl)nn12"
  Label Value: "True"
- Smi: "CC(C)c1c(NC(=O)Nc2cnc(-n3nccn3)c(Cl)c2)cnc2cc(Cl)nn12"
  Label Value: "False"
- Smi: "O=C(Nc1cnc(-n2nccn2)c(Cl)c1)Nc1cnc2cc(Cl)nn2c1C1CC1"
  Label Value: "False"
- Smi: "COC[C@@H](C)c1c(NC(=O)Nc2cnc(-n3nccn3)c(Cl)c2)cnc2cc(Cl)nn12"
  Label Value: "False"

Query: Exam item: decide whether the reported fraction unbound for CO[C@H](C)c1c(NC(=O)Nc2cnc(-n3nccn3)c(Cl)c2)cnc2cc(Cl)nn12 is at least 0.02.
Response: True

Query: Same read-out for CO[C@@H](C)c1c(NC(=O)Nc2cnc(-n3nccn3)c(Cl)c2)cnc2cc(Cl)nn12 ?
Response: True
